# Test system: Sodium-dependent serotonin transporter (Homo sapiens)
# Test summary: Inhibitory activity against human- serotonin reuptake transmitter using [3H]-citalopram as a radioligand
pIC50: −log10 of the molar value.
# pIC50 >= 7 gives y, anything below gives n

Oc1nc2cc3c(cc2c2c1[C@@H](N1CCC(Cc4cc(F)ccc4F)CC1)CCC2)OCO3 (stereo in doubt; 3o)
y
O=C1O[C@]2(CC[C@@H](N3CCC(Cc4cc(F)ccc4F)CC3)CC2)c2ccc3c(c21)OCO3
n
COc1ccc(F)c(CC2CCN([C@H]3CC[C@]4(CC3)OC(=O)c3c5c(ccc34)OCCO5)CC2)c1
n
O=C1O[C@]2(CC[C@@H](N3CCC(Cc4ccccc4F)CC3)CC2)c2ccc3c(c21)OCO3
n
O=C1O[C@]2(CC[C@@H](N3CCC(Cc4ccccc4Br)CC3)CC2)c2ccc3c(c21)OCO3
y

Now turn to the next compound.
Is pIC50 for `O=C1O[C@]2(CC[C@@H](N3CCC(Cc4ccccc4C(F)(F)F)CC3)CC2)c2ccc3c(c21)OCO3` at or above 7?
n

---

# Test summary: Inhibitory activity against 5-hydroxytryptamine receptor 1A using (+/-)-[3H]-8-hydroxydipropylaminotetralin
# Parameters: species or system Homo sapiens
Measurement kind: pIC50
Answers are plain numbers, as −log10 of the molar value.

Study these solved cases before continuing.
O=C1O[C@]2(CC[C@@H](N3CCC(Cc4ccccc4Br)CC3)CC2)c2ccc3c(c21)OCCO3
8.01
O=C1O[C@]2(CC[C@@H](N3CCC(Cc4cc(F)ccc4Br)CC3)CC2)c2ccc3c(c21)OCCO3
7.96

I'm hoping you can list pIC50 for every molecule here, please.
1. O=C1O[C@]2(CC[C@@H](N3CCC(Cc4ccccc4Cl)CC3)CC2)c2ccc3c(c21)OCO3
2. O=C1O[C@]2(CC[C@@H](N3CCC(Cc4ccccc4F)CC3)CC2)c2ccc3c(c21)OCCO3
3. Oc1nc2cc3c(cc2c2c1[C@@H](N1CCC(Cc4cc(F)ccc4F)CC1)CCC2)OCO3 (stereo in doubt; 3o)
4. COc1ccccc1CC1CCN([C@H]2CC[C@]3(CC2)OC(=O)c2c4c(ccc23)OCO4)CC1

1. 8.00
2. 7.92
3. 6.36
4. 8.17

---

# Test system: Sodium-dependent serotonin transporter (Homo sapiens, UniProt P31645)
# Sequence (P31645 whole entry): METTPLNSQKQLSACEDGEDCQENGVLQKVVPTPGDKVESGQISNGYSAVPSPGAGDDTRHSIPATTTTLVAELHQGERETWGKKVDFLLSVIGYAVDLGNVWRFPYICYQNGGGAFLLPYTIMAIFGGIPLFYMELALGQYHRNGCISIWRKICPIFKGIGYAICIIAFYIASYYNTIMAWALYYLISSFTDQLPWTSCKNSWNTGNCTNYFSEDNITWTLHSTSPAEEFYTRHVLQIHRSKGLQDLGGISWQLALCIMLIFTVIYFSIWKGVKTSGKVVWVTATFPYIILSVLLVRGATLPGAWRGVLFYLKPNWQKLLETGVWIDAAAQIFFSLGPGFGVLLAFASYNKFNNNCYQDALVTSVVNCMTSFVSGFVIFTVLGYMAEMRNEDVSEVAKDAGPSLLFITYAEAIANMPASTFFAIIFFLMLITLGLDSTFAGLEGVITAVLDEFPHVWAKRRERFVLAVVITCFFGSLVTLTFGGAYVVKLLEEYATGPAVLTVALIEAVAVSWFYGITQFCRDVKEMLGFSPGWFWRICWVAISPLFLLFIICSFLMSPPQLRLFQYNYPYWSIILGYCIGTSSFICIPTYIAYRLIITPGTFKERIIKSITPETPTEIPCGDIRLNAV
# Test summary: Inhibitory activity against human- serotonin reuptake transmitter using [3H]-citalopram as a radioligand
Kindly state pIC50 for each of the entries shown.
Give bare numbers, as −log10 of the molar value.

Study these solved cases before continuing.
O=C1O[C@]2(CC[C@@H](N3CCC(Cc4cc(Cl)ccc4Cl)CC3)CC2)c2ccc3c(c21)OCO3
7.04
O=C1O[C@]2(CC[C@@H](N3CCC(Cc4ccccc4F)CC3)CC2)c2ccc3c(c21)OCCO3
6.32
COc1ccc(F)c(CC2CCN([C@H]3CC[C@]4(CC3)OC(=O)c3c5c(ccc34)OCO5)CC2)c1
6.40

I'm hoping you can list pIC50 for every compound here, please.
1. Oc1nc2cc3c(cc2c2c1[C@@H](N1CCC(Cc4cc(F)ccc4F)CC1)CCC2)OCO3 (stereo in doubt; 4o)
2. O=C1O[C@]2(CC[C@@H](N3CCC(Cc4ccccc4Cl)CC3)CC2)c2ccc3c(c21)OCO3
3. O=C1O[C@]2(CC[C@@H](N3CCC(Cc4cc(F)ccc4Br)CC3)CC2)c2ccc3c(c21)OCO3
4. O=C1O[C@]2(CC[C@@H](N3CCC(Cc4cc(F)ccc4F)CC3)CC2)c2ccc3c(c21)OCCO3
5. O=C1O[C@]2(CC[C@@H](N3CCC(Cc4ccccc4Br)CC3)CC2)c2ccc3c(c21)OCCO3
6. O=C1O[C@]2(CC[C@@H](N3CCN(Cc4ccccc4I)CC3)CC2)c2ccc3c(c21)OCCO3

1: 7.85; 2: 6.85; 3: 7.09; 4: 6.96; 5: 7.14; 6: 7.27

I'm hoping you can list pIC50 for every compound here, please.
1. O=C1O[C@]2(CC[C@@H](N3CCN(Cc4ccccc4I)CC3)CC2)c2ccc3c(c21)OCO3
2. O=C1O[C@]2(CC[C@@H](N3CCC(Cc4ccccc4Cl)CC3)CC2)c2ccc3c(c21)OCCO3

1: 7.32; 2: 7.00
